Provide the reported TGI of each item.
- System: KM12 colon
- method.notes: NCI tumour cell line growth inhibition, 48 h
Where a SMILES comes first, the peptide text is derived from it. [ ]: non-standard residue; d: D form. The star is where a group is joined. ξ: configuration not given here. NMeY = CN[C@@H](Cc1ccc(O)cc1)C(=O)O; Cbz = O=C(OCc1ccccc1)*; ξA = CC(N)C(=O)O

Asked: What does the data say about its TGI? Entry: O=C(/C=C(/C=C/c1cccc2[nH]ccc12)OB(F)F)/C=C/c1cccc2[nH]ccc12
Given back: 2.54 µM

Asked: What does the data say about its TGI? Entry: COc1ccc(C[C@@H](C(=O)N[C@@H](C)C(N)=O)N(C)C(=O)[C@@H]2CCCN2C(=O)[C@H](CC(C)C)NC(=O)C(C)NC(=O)OCc2ccccc2)cc1 (some centres undefined) (Cbz-[ξA]LP[NMeY](Me)A-NH2)
Given back: > 100 µM

Asked: What does the data say about its TGI? Entry: COc1ccc2c(c1)OCC1c3cc(OC)c4ccccc4c3OC21 (centres undefined)
Given back: > 100 µM

Asked: What does the data say about its TGI? Entry: CC1=CC2(C)C=C[C@@H]1C(=O)[C@@]1(C)CC[C@@](O)(C(C)C)[C@H]1CC2
Given back: 41.7 µM

Asked: What does the data say about its TGI? Entry: Nc1[nH]c(=O)nc2c1cnn2COCCO
Given back: > 100 µM

Asked: What does the data say about its TGI? Entry: CCOC(=O)c1c2ccccc2n2c(=O)n(-c3ccc(OC)cc3)nnc12
Given back: > 100 µM

Asked: What does the data say about its TGI? Entry: CC(C)N(CC(=O)O)CC(=O)O
Given back: > 100 µM

Asked: What does the data say about its TGI? Entry: COC(=O)C1C(C(=O)O)C2(c3ccccc3)C(=O)C1(c1ccccc1)C(c1ccc(OC)cc1)=C2c1ccc(OC)cc1 (centres undefined)
Given back: 74.6 µM

Asked: What does the data say about its TGI? Entry: O=P1(Oc2ccc(Cl)cc2Cl)Oc2cc3ccccc3cc2O1
Given back: > 100 µM

###

- Tested on: SK-MEL-28 melanoma
- method.notes: NCI tumour cell line growth inhibition, 48 h
Provide the reported TGI of each item.
Write the number in µM without appending the unit.

Asked: What does the data say about its TGI? Entry: O=C(c1ccccc1)n1cc(/C=C/[N+](=O)[O-])c2ccccc21
Given back: 33.6

Asked: What does the data say about its TGI? Entry: CCOC(=O)c1c(C)n([O-])c2cc(F)c(F)cc2[n+]1=O
Given back: 2.58

Asked: What does the data say about its TGI? Entry: COc1ccc2nc3ccc(OC)cc3c(S(=O)Cc3ccccc3)c2c1 (centres undefined)
Given back: 27.2

###

Provide the reported TGI of each item.
- Tested on: CAKI-1 renal
- method.notes: NCI tumour cell line growth inhibition, 48 h

Asked: What does the data say about its TGI? Entry: C[n+]1cccc(NC(=O)c2ccc3ccc4ccc(C(=O)Nc5ccc[n+](C)c5)nc4c3n2)c1
Given back: > 100 µM

Asked: What does the data say about its TGI? Entry: COc1cccc(C(=O)NNc2nc(Cl)nc(N3CCN(C(c4ccccc4)c4ccccc4)CC3)n2)c1
Given back: 4.31 µM

Asked: What does the data say about its TGI? Entry: Nc1ccc(-c2nc3ccccc3s2)cc1CO
Given back: > 100 µM

Asked: What does the data say about its TGI? Entry: COc1ccc(COCC[C@H](C)OC2OC(CO[Si](C)(C)C(C)(C)C)C(O)C(O)C2O)cc1 (stereo partly drawn)
Given back: > 100 µM

Asked: What does the data say about its TGI? Entry: CNC(=O)O/N=C1\N(C)CN(c2ccccc2)C12CCN(CCCC(=O)c1ccc(F)cc1)CC2
Given back: > 100 µM

Asked: What does the data say about its TGI? Entry: CC(=Nc1ccc(Cl)cc1)c1ccncc1
Given back: > 100 µM

Asked: What does the data say about its TGI? Entry: CC1(C)CC(=O)c2c(-c3ccc(Cl)cc3)c(C#N)c(=S)n(C3OC(CO)C(O)C(O)C3O)c2C1 (stereo not drawn)
Given back: > 100 µM

Asked: What does the data say about its TGI? Entry: CCOC(=O)c1sc2nc(SC)nc3c2c1NC(=O)CN3c1ccc(F)cc1
Given back: > 100 µM

Asked: What does the data say about its TGI? Entry: Cc1nn(CNc2ccc(F)c(Cl)c2)c(=S)n1/N=C/c1ccc(-c2ccc(Cl)cc2Cl)o1
Given back: 35.8 µM

Asked: What does the data say about its TGI? Entry: COC(=O)CN1Cc2cc(C)cc(c2O)CN(CC(=O)OC)Cc2cc(C)cc(c2O)CN(CC(=O)OC)Cc2cc(C)cc(c2O)CN(CC(=O)OC)Cc2cc(C)cc(c2O)C1
Given back: 50 µM

Asked: What does the data say about its TGI? Entry: OC1CC(O)O[C@H](c2ccccc2)C1 (stereo partly drawn)
Given back: > 100 µM

Asked: What does the data say about its TGI? Entry: CC1(C)N=C(C(N)=O)c2ncn(Cc3ccccc3)c2N1
Given back: > 100 µM

Asked: What does the data say about its TGI? Entry: O=C(c1ccccc1)c1ccc(N2C(=O)/C(=C/c3cccc(Oc4ccccc4)c3)N=C2c2ccccc2)c(N2C(=O)/C(=C/c3cccc(Oc4ccccc4)c3)N=C2c2ccccc2)c1
Given back: > 100 µM

Asked: What does the data say about its TGI? Entry: Cn1c2c(c3ccccc31)CCN1C[C@@H]3CCCC[C@H]3C[C@@H]21
Given back: > 29.5 µM

Asked: What does the data say about its TGI? Entry: O=C(O)C1=Cc2cccc3cccc(c23)C1=O
Given back: > 100 µM

Asked: What does the data say about its TGI? Entry: CCCCCCC(=O)OC[n+]1ccc(-c2c(COC(=O)NC(C)C)c(COC(=O)NC(C)C)c3n2CCC3)cc1
Given back: 99.4 µM

Asked: What does the data say about its TGI? Entry: O=C(c1ccccc1)c1ccc(N2C(=O)/C(=C/c3ccccc3S)N=C2c2ccccc2)c(N2C(=O)/C(=C/c3ccccc3S)N=C2c2ccccc2)c1
Given back: > 100 µM

Asked: What does the data say about its TGI? Entry: COc1ccc2c(O)c1-c1c(OC)ccc(c1O)SSc1ccc(OC)c(c1O)-c1c(OC)ccc(c1O)SS2
Given back: > 100 µM
